Assay: Tmax in Sprague-Dawley rat at 10 mg/kg, po
Assay type: ADME, organism-based
Parameters: dose 10 mg/kg, route oral
Settings: in vivo
quantity: Tmax (min)

A. Cc1cc2ncc(C(=O)NCC(C)(C)NCC(=O)N3CCC[C@H]3C#N)c(C)n2n1.Cl
B. Cc1cc2ncc(C(=O)NCC(C)(C)NCC(=O)N3CCC[C@H]3C#N)cn2n1.Cl [ANAGLIPTIN HYDROCHLORIDE]
Exam item: In terms of reported Tmax, does A or B have the smaller number? // output: label of the selected item
Marked response: A
(A: 15 min, B: 48 min)

---

Test: Intrinsic clearance in rat liver microsomes
Assay type: ADME, Microsome
quantity: CLint scaled (mL/min/kg)
Response body: numeric value in mL/min/kg, unit text excluded.

Exam item: Sample Cc1cc2ncc(C(=O)NCC(C)(C)NCC(=O)N3CCC[C@H]3C#N)cn2n1.Cl [ANAGLIPTIN HYDROCHLORIDE] — what was its CLint scaled?
Marked response: 23.3

---

Test system: Canis familiaris
Assay: Volume of distribution at steady state in Beagle dog at 0.2 mg/kg, iv
Assay type: ADME, organism-based, Canis lupus familiaris
Parameters: dose 0.2 mg/kg, route intravenous
Details: in vivo
quantity: Vdss (L/kg)

{"columns": ["molecule", "tgt", "recordedNumber"],
 "data": [
  ["Cc1cc2ncc(C(=O)NCC(C)(C)NCC(=O)N3CCC[C@H]3C#N)cn2n1.Cl [ANAGLIPTIN HYDROCHLORIDE]", "Canis familiaris", 0.83],
  ["Cc1cc2ncc(C(=O)NCC(C)(C)NCC(=O)N3CCC[C@H]3C#N)c(C)n2n1.Cl", "Canis familiaris", 0.75]
]}

---

Assay: Plasma protein binding in human at 2000 ng/ml after 0.5 hrs by LC-MS/MS analysis
Format: ADME, cell-free
Details: read-out: PPB (converted)
quantity: fraction unbound at 0.5 h, 2000 ng/ml

{"columns": ["molecule", "fraction unbound at 0.5 h, 2000 ng/ml"],
 "data": [
  ["Cc1cc2ncc(C(=O)NCC(C)(C)NCC(=O)N3CCC[C@H]3C#N)c(C)n2n1.Cl", 0.784],
  ["Cc1cc2ncc(C(=O)NCC(C)(C)NCC(=O)N3CCC[C@H]3C#N)cn2n1.Cl [ANAGLIPTIN HYDROCHLORIDE]", 0.736]
]}

---

Test system: Canis familiaris
Assay: AUC in Beagle dog at 0.5 mg/kg, po
Assay type: ADME, organism-based, Canis lupus familiaris, Plasma
Design: dose 0.5 mg/kg, route oral
Details: in vivo
quantity: AUC (ng·h/mL)

P. Cc1cc2ncc(C(=O)NCC(C)(C)NCC(=O)N3CCC[C@H]3C#N)c(C)n2n1.Cl
Q. Cc1cc2ncc(C(=O)NCC(C)(C)NCC(=O)N3CCC[C@H]3C#N)cn2n1.Cl [ANAGLIPTIN HYDROCHLORIDE]
Exam item: In terms of reported AUC, does P or Q have the smaller number? // output: label of the selected item
Marked response: Q
(Q: 824 ng·h/mL, P: 6390 ng·h/mL)

---

Test: Drug excretion in bile-duct cannulated Sprague-Dawley rat bile assessed as unchanged drug at 1 mg/kg, iv measured over 24 hrs
Type: ADME, organism-based
Set-up: dose 1 mg/kg, route intravenous
Conditions: read-out: AE
quantity: dose excreted at 24 h (%)
Response body: numeric value in %, unit text excluded.

Exam item: Sample Cc1cc2ncc(C(=O)NCC(C)(C)NCC(=O)N3CCC[C@H]3C#N)cn2n1.Cl [ANAGLIPTIN HYDROCHLORIDE] — what was its dose excreted at 24 h?
Marked response: 13

---

Below is a list of entries, each paired with its recorded pIC50 value.
Biological target: Dipeptidyl peptidase 8 (Homo sapiens, UniProt Q6V1X1)
Sequence (Q6V1X1 whole entry): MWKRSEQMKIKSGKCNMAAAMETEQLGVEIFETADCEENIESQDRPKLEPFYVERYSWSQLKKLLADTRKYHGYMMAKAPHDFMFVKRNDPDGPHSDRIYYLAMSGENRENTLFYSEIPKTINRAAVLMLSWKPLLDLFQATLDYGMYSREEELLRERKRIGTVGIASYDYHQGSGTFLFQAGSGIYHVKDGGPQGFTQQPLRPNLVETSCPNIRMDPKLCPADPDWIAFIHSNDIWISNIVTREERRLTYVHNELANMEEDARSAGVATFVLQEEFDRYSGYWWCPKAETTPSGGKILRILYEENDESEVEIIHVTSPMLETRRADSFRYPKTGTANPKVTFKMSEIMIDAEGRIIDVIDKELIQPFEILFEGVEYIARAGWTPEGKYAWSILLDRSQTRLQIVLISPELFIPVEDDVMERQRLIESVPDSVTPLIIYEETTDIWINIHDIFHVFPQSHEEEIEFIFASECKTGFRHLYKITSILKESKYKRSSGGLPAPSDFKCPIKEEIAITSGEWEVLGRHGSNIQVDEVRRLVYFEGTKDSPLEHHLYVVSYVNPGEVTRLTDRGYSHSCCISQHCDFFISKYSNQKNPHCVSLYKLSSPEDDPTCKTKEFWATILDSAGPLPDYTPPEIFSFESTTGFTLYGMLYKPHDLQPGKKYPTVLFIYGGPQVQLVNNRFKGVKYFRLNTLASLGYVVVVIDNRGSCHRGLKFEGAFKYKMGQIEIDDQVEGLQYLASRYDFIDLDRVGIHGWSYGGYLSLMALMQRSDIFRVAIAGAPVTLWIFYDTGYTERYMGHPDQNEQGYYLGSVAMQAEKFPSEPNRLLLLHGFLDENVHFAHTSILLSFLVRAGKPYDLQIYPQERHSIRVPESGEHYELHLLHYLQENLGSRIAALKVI
Assay: Inhibition of human recombinant DPP-8 expressed in Sf9 cells using H-Gly-Pro-AMC as substrate preincubated for 30 mins before substrate addition measured after 20 mins by fluorescence assay
pIC50: −log10 of the molar value.

Exam item: Sample Cc1cc2ncc(C(=O)NCC(C)(C)NCC(=O)N3CCC[C@H]3C#N)c(C(F)(F)F)n2n1 — what was its pIC50?
Marked response: < 4.00

Exam item: Repeat with Cc1nc2cc(C(C)(C)C)nn2c(C)c1C(=O)NCC(C)(C)NCC(=O)N1CCC[C@H]1C#N
Marked response: < 4.00

Exam item: Repeat with Cc1c(C(=O)NCC(C)(C)NCC(=O)N2CCC[C@H]2C#N)cnc2cc(C(C)(C)C)nn12
Marked response: < 4.00

Exam item: Repeat with Cc1cc2ncc(C(=O)NCC(C)(C)NCC(=O)N3CCC[C@H]3C#N)cn2n1.Cl [ANAGLIPTIN HYDROCHLORIDE]
Marked response: 4.17

---

Experiment: Intrinsic clearance in human liver microsomes
Type: ADME, Microsome
quantity: CLint scaled (mL/min/kg)
Response body: numeric value in mL/min/kg, unit text excluded.

Exam item: Sample Cc1cc2ncc(C(=O)NCC(C)(C)NCC(=O)N3CCC[C@H]3C#N)cn2n1.Cl [ANAGLIPTIN HYDROCHLORIDE] — what was its CLint scaled?
Marked response: 5

---

Test system: Rattus norvegicus
Experiment: Volume of distribution at steady state in Sprague-Dawley rat at 1 mg/kg, iv
Type: ADME, organism-based
Set-up: dose 1 mg/kg, route intravenous
Settings: in vivo
quantity: Vdss (L/kg)
Response body: numeric value in L/kg, unit text excluded.

Exam item: Checklist item: Vdss tested on Rattus norvegicus, entry Cc1cc2ncc(C(=O)NCC(C)(C)NCC(=O)N3CCC[C@H]3C#N)cn2n1.Cl [ANAGLIPTIN HYDROCHLORIDE] , value?
Marked response: 0.68

---

Target: Cytochrome P450 2C19 (Homo sapiens, UniProt P33261)
Sequence (P33261 whole entry): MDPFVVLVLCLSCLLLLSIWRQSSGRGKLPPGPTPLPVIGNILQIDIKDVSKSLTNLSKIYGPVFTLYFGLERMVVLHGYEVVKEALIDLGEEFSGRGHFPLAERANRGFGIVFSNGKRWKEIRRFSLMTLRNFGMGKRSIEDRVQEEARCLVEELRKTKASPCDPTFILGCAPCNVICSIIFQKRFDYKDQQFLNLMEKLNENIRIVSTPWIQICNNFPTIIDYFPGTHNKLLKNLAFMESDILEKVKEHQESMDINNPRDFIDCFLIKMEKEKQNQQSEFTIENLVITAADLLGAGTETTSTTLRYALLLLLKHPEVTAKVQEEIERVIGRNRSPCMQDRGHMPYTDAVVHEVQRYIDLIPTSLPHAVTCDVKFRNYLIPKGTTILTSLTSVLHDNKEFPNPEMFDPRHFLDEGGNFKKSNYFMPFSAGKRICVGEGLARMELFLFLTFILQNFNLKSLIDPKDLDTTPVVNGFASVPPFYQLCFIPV
pIC50: −log10 of the molar value.
quantity: pIC50

Exam item: Sample Cc1cc2ncc(C(=O)NCC(C)(C)NCC(=O)N3CCC[C@H]3C#N)cn2n1.Cl [ANAGLIPTIN HYDROCHLORIDE] — what was its pIC50?
Marked response: < 5.00

---

Molecular target: Dipeptidyl peptidase 9 (Homo sapiens, UniProt Q86TI2)
Sequence (Q86TI2 whole entry): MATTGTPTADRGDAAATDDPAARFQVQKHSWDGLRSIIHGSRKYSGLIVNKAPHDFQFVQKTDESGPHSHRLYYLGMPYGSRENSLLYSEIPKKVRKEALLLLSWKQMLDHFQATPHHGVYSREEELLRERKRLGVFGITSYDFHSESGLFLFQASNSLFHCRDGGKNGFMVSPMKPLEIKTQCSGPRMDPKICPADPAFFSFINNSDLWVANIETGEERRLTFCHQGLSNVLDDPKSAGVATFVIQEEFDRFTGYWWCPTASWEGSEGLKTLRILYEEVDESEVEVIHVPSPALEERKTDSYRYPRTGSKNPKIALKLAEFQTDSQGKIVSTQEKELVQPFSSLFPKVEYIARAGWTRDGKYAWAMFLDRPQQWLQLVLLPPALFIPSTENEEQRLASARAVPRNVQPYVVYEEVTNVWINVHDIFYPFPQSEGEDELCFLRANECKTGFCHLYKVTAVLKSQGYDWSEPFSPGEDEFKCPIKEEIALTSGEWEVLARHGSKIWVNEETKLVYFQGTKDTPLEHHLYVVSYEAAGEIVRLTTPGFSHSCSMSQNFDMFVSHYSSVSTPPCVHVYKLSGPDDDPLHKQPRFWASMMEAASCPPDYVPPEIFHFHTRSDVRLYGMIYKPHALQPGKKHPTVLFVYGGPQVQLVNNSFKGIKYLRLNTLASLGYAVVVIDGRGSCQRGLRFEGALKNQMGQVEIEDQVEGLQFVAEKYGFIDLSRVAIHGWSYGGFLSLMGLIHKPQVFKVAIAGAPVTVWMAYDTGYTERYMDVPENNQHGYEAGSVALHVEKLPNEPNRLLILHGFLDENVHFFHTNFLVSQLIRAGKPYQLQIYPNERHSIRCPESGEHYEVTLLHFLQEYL
Assay: Inhibition of human recombinant DPP-9 expressed in Sf9 cells using H-Gly-Pro-AMC as substrate preincubated for 30 mins before substrate addition measured after 20 mins by fluorescence assay
quantity: IC50 (µM)
Response body: numeric value in µM, unit text excluded.

Exam item: Sample Cc1cc2ncc(C(=O)NCC(C)(C)NCC(=O)N3CCC[C@H]3C#N)cn2n1.Cl [ANAGLIPTIN HYDROCHLORIDE] — what was its IC50?
Marked response: 60

---

Experiment: Cmax in Sprague-Dawley rat at 10 mg/kg, po
Assay type: ADME, organism-based
Parameters: dose 10 mg/kg, route oral
Details: in vivo
quantity: Cmax (ng/mL)

I. Cc1cc2ncc(C(=O)NCC(C)(C)NCC(=O)N3CCC[C@H]3C#N)c(C)n2n1.Cl
II. Cc1cc2ncc(C(=O)NCC(C)(C)NCC(=O)N3CCC[C@H]3C#N)cn2n1.Cl [ANAGLIPTIN HYDROCHLORIDE]
Exam item: In terms of reported Cmax, does I or II have the smaller number? // output: label of the selected item
Marked response: II
(II: 309 ng/mL, I: 747 ng/mL)

---

Experiment: Cmax in Beagle dog at 0.5 mg/kg, po
Format: ADME, organism-based, Canis lupus familiaris
Design: dose 0.5 mg/kg, route oral
Details: in vivo
quantity: Cmax (ng/mL)

{"columns": ["compound", "unitAbbreviation", "Cmax"],
 "data": [
  ["Cc1cc2ncc(C(=O)NCC(C)(C)NCC(=O)N3CCC[C@H]3C#N)c(C)n2n1.Cl", "ng/mL", 282],
  ["Cc1cc2ncc(C(=O)NCC(C)(C)NCC(=O)N3CCC[C@H]3C#N)cn2n1.Cl [ANAGLIPTIN HYDROCHLORIDE]", "ng/mL", 261]
]}

---

Test system: Rattus norvegicus
Assay: AUC in Sprague-Dawley rat at 10 mg/kg, po
Type: ADME, organism-based, Plasma
Set-up: dose 10 mg/kg, route oral
Conditions: in vivo
quantity: AUC (ng·h/mL)

{"columns": ["compound", "AUC [ng·h/mL]"],
 "data": [
  ["Cc1cc2ncc(C(=O)NCC(C)(C)NCC(=O)N3CCC[C@H]3C#N)c(C)n2n1.Cl", 1110],
  ["Cc1cc2ncc(C(=O)NCC(C)(C)NCC(=O)N3CCC[C@H]3C#N)cn2n1.Cl [ANAGLIPTIN HYDROCHLORIDE]", 1160]
]}

---

Test: Total clearance in Sprague-Dawley rat at 3 mg/kg, iv
Format: ADME, organism-based
Set-up: dose 3 mg/kg, route intravenous
Settings: in vivo
quantity: clearance (mL/min/kg)
Response body: numeric value in mL/min/kg, unit text excluded.

Exam item: Sample Cc1cc2ncc(C(=O)NCC(C)(C)NCC(=O)N3CCC[C@H]3C#N)c(C)n2n1.Cl — what was its clearance?
Marked response: 37.2
